# TARGET OR TEST SYSTEM: Cytochrome P450 2C8 (Homo sapiens, UniProt P10632)
# Sequence (P10632 whole entry): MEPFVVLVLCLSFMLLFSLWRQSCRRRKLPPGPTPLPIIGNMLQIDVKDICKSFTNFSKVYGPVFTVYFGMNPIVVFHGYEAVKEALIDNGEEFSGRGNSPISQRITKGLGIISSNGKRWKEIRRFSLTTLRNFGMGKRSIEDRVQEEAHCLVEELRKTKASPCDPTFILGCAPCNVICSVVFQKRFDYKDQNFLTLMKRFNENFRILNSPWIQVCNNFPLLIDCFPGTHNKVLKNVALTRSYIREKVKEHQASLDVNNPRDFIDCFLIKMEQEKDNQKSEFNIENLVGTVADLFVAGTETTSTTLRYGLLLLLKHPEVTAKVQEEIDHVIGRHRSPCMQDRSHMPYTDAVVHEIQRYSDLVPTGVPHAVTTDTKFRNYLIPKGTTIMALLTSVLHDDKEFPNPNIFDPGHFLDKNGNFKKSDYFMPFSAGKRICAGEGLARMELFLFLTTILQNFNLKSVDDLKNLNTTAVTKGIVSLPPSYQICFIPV
# ASSAY METHOD TEXT: Inhibition of recombinant human CYP2C8 expressed in Escherichia coli using luciferin-ME as substrate by fluorescence assay
pIC50: −log10 of the molar value.
ASSAY READOUT: pIC50

Solved cases (2 shown):
| COMPOUND | ASSAY READOUT | TEST RESULT |
| --- | --- | --- |
| Cc1cc(-c2ccc(C(=O)[C@@H]3CCCC[C@H]3C(=O)Nc3cnn(C)c3C(=O)NOC(C)(C)C)cc2)[nH]n1 | pIC50 | < 4.70 |
| Cc1cc(-c2ccc(C(=O)[C@@H]3CCCC[C@H]3C(=O)Nc3cnn(C)c3S(N)(=O)=O)cc2)[nH]n1 | pIC50 | < 4.70 |

Moving on to the next molecule.
### Prompt Provide one value: measured pIC50 of "Cc1cc(-c2ccc(C(=O)[C@@H]3CCCC[C@H]3C(=O)Nc3cnn4c3C(=O)NCC4)cc2)[nH]n1"
### Response < 4.70
